# STUDY_TARGET: 6-phosphofructo-2-kinase/fructose-2,6-bisphosphatase 3 (Homo sapiens)
# Sequence (Q16875 whole entry): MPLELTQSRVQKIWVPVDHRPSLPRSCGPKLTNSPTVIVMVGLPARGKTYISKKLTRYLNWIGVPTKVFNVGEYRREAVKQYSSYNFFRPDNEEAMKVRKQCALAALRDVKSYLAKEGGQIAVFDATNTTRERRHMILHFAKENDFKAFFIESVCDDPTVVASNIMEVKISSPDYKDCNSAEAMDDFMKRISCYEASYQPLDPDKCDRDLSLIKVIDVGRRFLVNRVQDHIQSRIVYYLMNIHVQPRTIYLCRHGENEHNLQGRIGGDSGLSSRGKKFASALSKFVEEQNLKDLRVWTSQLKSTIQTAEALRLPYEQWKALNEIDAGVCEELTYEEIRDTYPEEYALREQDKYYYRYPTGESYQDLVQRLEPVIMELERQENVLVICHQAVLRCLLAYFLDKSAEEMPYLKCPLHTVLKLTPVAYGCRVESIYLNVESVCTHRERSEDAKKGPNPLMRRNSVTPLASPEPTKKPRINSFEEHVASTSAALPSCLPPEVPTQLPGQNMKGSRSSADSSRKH
# TEST_PROTOCOL: Inhibition of iPFK2 (unknown origin) assessed as reduction in enzyme-mediated fructose-6-phosphate phosphorylation by measuring ATP consumption incubated for 3 hrs by luciferase-luciferin-coupled chemiluminescence assay
Each entry below carries its recorded IC50.
ASSAY_ENDPOINT: IC50

COMPOUND: Cc1nc(NC(C)c2ccc(Cl)c(O)c2)cc(-c2ccc3occ(C)c3c2)n1 (stereo unspecified)
ASSAY_ENDPOINT: IC50
ENDPOINT_VALUE: > 1000 nM
--
COMPOUND: CCCCCC(C)Nc1cc(-c2ccc3ncsc3c2)nc(C)n1 (stereo unspecified)
ASSAY_ENDPOINT: IC50
ENDPOINT_VALUE: > 1000 nM
--
COMPOUND: Cc1nc(N[C@@H](C)C(C)(C)C)cc(-c2ccc3ncsc3c2)n1
ASSAY_ENDPOINT: IC50
ENDPOINT_VALUE: > 1000 nM
--
COMPOUND: Cc1nc(NC(C)c2cccc(O)c2)cc(-c2ccc3ncsc3c2)n1 (stereo unspecified)
ASSAY_ENDPOINT: IC50
ENDPOINT_VALUE: 500 nM
--
COMPOUND: Cc1nc(NCc2cccc(-n3cccc3)c2)cc(-c2ccc3ncsc3c2)n1
ASSAY_ENDPOINT: IC50
ENDPOINT_VALUE: > 1000 nM
--
COMPOUND: COc1cccc([C@H](C)Nc2cc(-c3ccc4c(c3)CCO4)nc(C)n2)c1
ASSAY_ENDPOINT: IC50
ENDPOINT_VALUE: 500 nM

====

Quick reference: IC50 of the listed items.
# STUDY_TARGET: 6-phosphofructo-2-kinase/fructose-2,6-bisphosphatase 3 (Homo sapiens)
# TEST_PROTOCOL: Inhibition of iPFK2 (unknown origin) assessed as reduction in enzyme-mediated fructose-6-phosphate phosphorylation by measuring ATP consumption incubated for 3 hrs by luciferase-luciferin-coupled chemiluminescence assay

COMPOUND: Cc1nc(N[C@@H]2CCCc3ccccc32)cc(-c2cccc(C(N)=O)c2)n1
IC50: > 1000 nM
//
COMPOUND: Cc1nc(NCCc2ccc(O)cc2)cc(-c2ccc3ncsc3c2)n1
IC50: > 1000 nM
//
COMPOUND: COc1cccc(-c2cc(NC(C)c3cccc(NCC(=O)O)c3)nc(C)n2)c1 (stereo not given)
IC50: > 1000 nM
//
COMPOUND: COc1cccc(-c2cc(NC(C)c3cccc(S(N)(=O)=O)c3)nc(C)n2)c1 (stereo not given)
IC50: > 1000 nM
//
COMPOUND: Cc1nc(NC(C)c2cccc(-c3ccoc3)c2)cc(-c2ccc3occ(C)c3c2)n1 (stereo not given)
IC50: 500 nM
//
COMPOUND: Cc1nc(N[C@@H](C)c2cccc(-c3cccn3C)c2)cc(-c2ccc3ncsc3c2)n1
IC50: > 1000 nM
//
COMPOUND: COc1cccc([C@H](C)Nc2cc(-c3cccc(Cl)c3)nc(C)n2)c1
IC50: 500 nM
//
COMPOUND: Cc1nc(NC(C)c2cccc(OC(C)C(N)=O)c2)cc(-c2ccc3ncsc3c2)n1 (stereo not given)
IC50: > 1000 nM
//
COMPOUND: Cc1nc(NC(C)c2cccc(OCCn3cccn3)c2)cc(-c2ccc3ncsc3c2)n1 (stereo not given)
IC50: > 1000 nM
//
COMPOUND: Cc1ccc(COc2cccc(C(C)Nc3cc(-c4ccc5ncsc5c4)nc(C)n3)c2)cc1 (stereo not given)
IC50: > 1000 nM

// provenance: ChEMBL document CHEMBL3727358
